Origin of the recorded values: ChEMBL document CHEMBL2321763

- measurement.protocol: Solubility of compound in fasted state simulated intestinal fluid
Use label 1 when the recorded solubility is no lower than 30 µM; use label 0 when it is lower.

Worked cases, answers included:
[[record]]
compound = "CN(C)CC[C@H](CSc1ccccc1)Nc1ccc(S(=O)(=O)Nc2nnc3cc(N4CCN(Cc5ccccc5-c5ccc(Cl)cc5)CC4)cnn23)cc1[N+](=O)[O-]"
label_value = "label 1"

[[record]]
compound = "CN(C)CC[C@H](CSc1ccccc1)Nc1ccc(S(=O)(=O)NC2=NS(=O)(=O)c3cc(N4CCN(Cc5ccccc5-c5ccc(Cl)cc5)CC4)ccc32)cc1[N+](=O)[O-]"
label_value = "label 0"

[[record]]
compound = "CN(C)CC[C@H](CSc1ccccc1)Nc1ccc(S(=O)(=O)NC(=O)c2ccc(N3CCN(Cc4ccccc4-c4ccc(Cl)cc4)CC3)cc2)cc1[N+](=O)[O-] [ABT 737]"
label_value = "label 0"


Decide: is the reported value of solubility for `CN(C)CC[C@H](CSc1ccccc1)Nc1ccc(S(=O)(=O)Nc2ncnc3c2CCN(C2CCN(Cc4ccccc4-c4ccc(Cl)cc4)CC2)C3)cc1S(=O)(=O)C(F)(F)F` equal to or greater than 30 µM?
label 1

Decide: is the reported value of solubility for `CN(C)CC[C@H](CSc1ccccc1)Nc1ccc(S(=O)(=O)Nc2ncnc3c2CCN(C2CCN(Cc4cc(F)ccc4-c4ccc(Cl)cc4)CC2)C3=O)cc1S(=O)(=O)C(F)(F)F` equal to or greater than 30 µM?
label 1

Decide: is the reported value of solubility for CC(c1ccccc1-c1ccc(Cl)cc1)N1CCC(N2CCc3c(ncnc3NS(=O)(=O)c3ccc(N[C@H](CCN(C)C)CSc4ccccc4)c(S(=O)(=O)C(F)(F)F)c3)C2)CC1 (some centres not stated) equal to or greater than 30 µM?
label 1

Decide: is the reported value of solubility for `CN(C)CC[C@H](CSc1ccccc1)Nc1ccc(S(=O)(=O)Nc2nc(C(F)(F)F)nc3c2CCN(C2CCN(Cc4ccccc4-c4ccc(Cl)cc4)CC2)C3)cc1S(=O)(=O)C(F)(F)F` equal to or greater than 30 µM?
label 1
